Assay: in vitro
Assay type: cell-based
Settings: human
quantity: IC50

Qu. Name the recorded IC50 for `CC(C)=C[C@H]1C[C@H](C)[C@]2(CC[C@]3(C)C[C@H]4[C@H](C(=O)C[C@@]4(C)O)/C(C=O)=C\C[C@H]32)O1` .
Ans. ~200 nM

----------
System: MDA-MB-231
Assay: cells
Format: cell-based
Conditions: Homo sapiens, MDA-MB-231, read-out: cytotoxicity (IC50) as quoted in text
quantity: IC50

Qu. Entry CC(C)=C[C@H]1C[C@H](C)[C@]2(CC[C@]3(C)C[C@H]4[C@H](C(=O)C[C@@]4(C)O)/C(C=O)=C\C[C@H]32)O1 [OpA, ophiobolin A] : reported IC50 = ?
Ans. ~69 nM
